assayProtocol: Half life in Sprague-Dawley rat at 5 mg/kg, iv
Type: ADME, organism-based
Set-up: dose 5 mg/kg, route intravenous
experimentalParameters: in vivo
Kindly supply the reported half-life values for the records listed here.

Which half-life reading was recorded for the compound "O=c1c2c(COCc3ccccc3)n(Cc3cnccn3)c(=O)cc2[nH]n1-c1ccccc1Cl" ?
3.14 h

I'd like to know its half-life. The compound in question is "Cn1c(COc2ccc(F)cc2)c2c(=O)n(-c3ccccc3Cl)[nH]c2cc1=O"
3.47 h

Fill blank: measured half-life of the compound "Cc1c2c(=O)n(-c3ccccc3Cl)[nH]c2cc(=O)n1Cc1ccccn1" is ____.
3.63 h

Given "O=c1c2c(CN3CCCC3)n(CCc3ccccn3)c(=O)cc2[nH]n1-c1ccc(F)cc1Cl" , state its recorded half-life.
3.3 h
